Origin of the recorded values: patent USRE29828E

Tested on: depressant action of tetrabenazine in mice
Assay: anti-depressant effect: antagonism of the depressant action of tetrabenazine in mice
Format: in vivo
Conditions: Mus musculus, read-out: ED50 (dose effective in 50 percent of the treated mice), anti-depressant effect
Where a name gives a salt, the structure may show the parent alone.
Rule: ED50 below 3 mg/kg gives y, anything at or above gives n.

MOLECULE: CCN1CCC(N(C(=O)c2ccccc2)c2cccc(C(F)(F)F)c2)C1 (stereo not drawn)
CLASS ASSIGNMENT: y
--
MOLECULE: O=C(c1ccccc1)N(c1ccccc1)C1CCNC1 (stereo not drawn)
CLASS ASSIGNMENT: y
--
MOLECULE: O=C(c1ccccc1)N(c1ccccc1)C1CCN(Cc2ccccc2)C1 (stereo not drawn)
CLASS ASSIGNMENT: n
--
MOLECULE: CN1CCC(N(C(=O)c2ccccc2)c2ccccc2)C1 (stereo not drawn)
CLASS ASSIGNMENT: y
--
MOLECULE: CN1CCC(N(C(=O)c2ccc(Cl)cc2)c2ccccc2)C1 (stereo not drawn) [Example 15, fumarate]
CLASS ASSIGNMENT: y
--
MOLECULE: CN1CCC(N(C(=O)c2cccc(C(F)(F)F)c2)c2ccccc2)C1 (stereo not drawn)
CLASS ASSIGNMENT: y
--
MOLECULE: CN1CCC(N(C(=O)c2ccc(F)cc2)c2ccccc2)C1 (stereo not drawn)
CLASS ASSIGNMENT: n
--
MOLECULE: CCN1CCC(N(C(=O)c2ccc(Cl)cc2)c2ccc(Cl)cc2)C1 (stereo not drawn)
CLASS ASSIGNMENT: n
--
MOLECULE: CN1CCC(N(C(=O)c2cccc(Cl)c2)c2ccccc2)C1 (stereo not drawn)
CLASS ASSIGNMENT: y
--
MOLECULE: CCN1CCC(N(C(=O)c2ccc(Cl)cc2)c2ccccc2)C1 (stereo not drawn)
CLASS ASSIGNMENT: y
--
MOLECULE: CN(C)CCCN1c2ccccc2CCc2ccccc21 [Tofranil®, reference compound]
CLASS ASSIGNMENT: y
--
MOLECULE: CN1CCC(N(C(=O)c2ccc(Br)cc2)c2ccccc2)C1 (stereo not drawn)
CLASS ASSIGNMENT: n
